Ref: ChEMBL document CHEMBL1155924

TARGET: Phosphatidylinositol 4,5-bisphosphate 3-kinase catalytic subunit delta isoform (Homo sapiens, UniProt O00329)
Sequence (O00329 whole entry): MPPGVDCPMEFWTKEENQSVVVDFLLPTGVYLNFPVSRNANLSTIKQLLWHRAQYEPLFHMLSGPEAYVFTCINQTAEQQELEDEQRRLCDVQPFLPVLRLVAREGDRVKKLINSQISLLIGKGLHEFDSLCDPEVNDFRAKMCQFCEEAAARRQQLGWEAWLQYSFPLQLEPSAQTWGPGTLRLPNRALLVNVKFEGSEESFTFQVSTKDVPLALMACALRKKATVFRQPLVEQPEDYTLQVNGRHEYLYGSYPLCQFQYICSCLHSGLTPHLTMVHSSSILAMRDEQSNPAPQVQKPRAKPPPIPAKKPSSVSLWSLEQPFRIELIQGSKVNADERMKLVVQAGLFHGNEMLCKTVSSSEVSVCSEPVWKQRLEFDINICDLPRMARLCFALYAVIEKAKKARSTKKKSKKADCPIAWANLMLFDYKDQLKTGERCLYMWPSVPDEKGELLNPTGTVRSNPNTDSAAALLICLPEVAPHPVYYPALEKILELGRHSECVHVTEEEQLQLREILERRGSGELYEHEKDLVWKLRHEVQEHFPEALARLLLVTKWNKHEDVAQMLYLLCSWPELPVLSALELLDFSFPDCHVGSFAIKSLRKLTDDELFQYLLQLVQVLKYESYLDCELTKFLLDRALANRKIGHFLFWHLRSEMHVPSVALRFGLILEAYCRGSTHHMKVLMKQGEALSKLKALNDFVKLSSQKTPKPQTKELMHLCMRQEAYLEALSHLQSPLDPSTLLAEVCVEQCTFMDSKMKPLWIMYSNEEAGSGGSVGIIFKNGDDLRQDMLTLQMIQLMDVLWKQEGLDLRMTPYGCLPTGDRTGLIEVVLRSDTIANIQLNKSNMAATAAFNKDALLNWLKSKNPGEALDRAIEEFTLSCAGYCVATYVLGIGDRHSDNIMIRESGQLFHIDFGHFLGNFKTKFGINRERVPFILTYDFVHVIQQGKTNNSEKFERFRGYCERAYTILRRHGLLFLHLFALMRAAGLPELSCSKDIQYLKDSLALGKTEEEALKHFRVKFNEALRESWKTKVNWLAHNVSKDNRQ
PROTOCOL_DETAILS: Inhibition of PI3K delta
MEASURED_METRIC: IC50 (nM)

Consider the following illustrative entries.
q: GET /values?readout=IC50&item= CC1(C)Cc2nc(N3CCOc4ccc(-c5ccccc5)cc43)sc2C(=O)N1
a: 50

q: Moving on to CC1(C)CC(=O)c2sc(N3CCOc4ccccc43)nc2C1
a: 614

q: Moving on to CC1(C)CC(=O)c2sc(N3CCOc4cc(-c5ccccc5)ccc43)nc2C1
a: 1050

q: Moving on to CC1(C)Cc2nc(N3CCOCC3)sc2C(=O)N1
a: 722

q: Moving on to CC1(C)Cc2nc(N3CCOc4ccc(Br)cc43)sc2C(=O)N1
a: 153

A. Cc1ccc(-c2ccc3c(c2)N(c2nc4c(s2)C(=O)CC(C)(C)C4)CCO3)cn1
B. CC1(C)CC(=O)c2sc(N3CCOc4ccc(Br)cc43)nc2C1
C. CC1(C)Cc2nc(N3CCOc4ccc(C5CC5)cc43)sc2C(=O)N1
D. CC1(C)CC(=O)c2sc(N3CCOc4ccc(-c5ccccn5)cc43)nc2C1
E. Cc1nc(-c2ccc3c(c2)N(c2nc4c(s2)C(=O)NC(C)(C)C4)CCO3)c[nH]1
q: # desc sort on IC50 across 5 compounds As an answer, provide the labels arranged in the order called for.
a: B, C, D, E, A
